test_summary: Transdermal delivery of melatonin: plasma level of melatonin after applying composition to skin of a subject
recorded_conditions: human, plasma, topical, 3 mg, Plasma level of melatonin, Isoleucine isopropyl ester 333.76 mM, 0.60 mL applied to skin, 0 hr after transdermal administration
property_label: concentration at 0 hr (ng/mL)

• COc1ccc2[nH]cc(CCNC(C)=O)c2c1 [Melatonin] = 0

====

test_summary: Transdermal delivery of melatonin: plasma level of melatonin after applying composition to skin of a subject
recorded_conditions: human, plasma, topical, 3 mg, Plasma level of melatonin, Table 20 control, A− N/A, helper esters 0 mM, 2.0 mL applied, 1 hr after transdermal administration
property_label: concentration at 1 hr (ng/mL)

- COc1ccc2[nH]cc(CCNC(C)=O)c2c1 [Melatonin]: 0.1

====

test_summary: Transdermal delivery of melatonin: plasma level of melatonin after applying composition to skin of a subject
recorded_conditions: human, plasma, topical, 3 mg, Plasma level of melatonin, Tryptophan ethyl ester hydrochloride 260.47 mM, 0.3 mL applied to skin, 0 hr after transdermal administration
property_label: concentration at 0 h (ng/mL)

- COc1ccc2[nH]cc(CCNC(C)=O)c2c1: 0

====

test_summary: Transdermal delivery of melatonin: plasma level of melatonin after applying composition to skin of a subject
recorded_conditions: human, plasma, topical, 2 mL of […] melatonin suspension in water, Plasma level of melatonin, Table 21 control, A− N/A, helper esters 0 mM, 2.0 mL applied, 8 hr after transdermal administration
property_label: concentration at 8 h (ng/mL)

* COc1ccc2[nH]cc(CCNC(C)=O)c2c1 | 0.1

====

test_summary: Transdermal delivery of melatonin: plasma level of melatonin after applying composition to skin of a subject
recorded_conditions: human, plasma, topical, 3 mg, Plasma level of melatonin, Tryptophan ethyl ester hydrochloride 260.47 mM, 0.3 mL applied to skin, 4 hr after transdermal administration
property_label: concentration at 4 h (ng/mL)

- COc1ccc2[nH]cc(CCNC(C)=O)c2c1: 1.9

====

Test system: human skin tissue
test_summary: Penetration rate of AI compound in AI-helper composition through human skin in vitro, modified Franz cells
Type: in vitro ADME
recorded_conditions: with L-isoleucine isopropyl ester hydrochloride 6 % w/v in water; AI compound 0.5 % w/v; 25 °C
property_label: Skin penetration rate of AI compound (μg/cm^2/h)

- NCCS(=O)(=O)O [Taurine]: 7.247
- Nc1nc2ncc(CNc3ccc(C(=O)N[C@@H](CCC(=O)O)C(=O)O)cc3)nc2c(=O)[nH]1 [Folic acid]: 5.793
- Cc1ncc(CO)c(CO)c1O.Cl [Vitamin B6]: 13.632
- N[C@@H](CCC(=O)N[C@@H](CS)C(=O)NCC(=O)O)C(=O)O [Glutathione]: 14.698
- CC1=C(/C=C/C(C)=C/C=C/C(C)=C/C=C/C=C(C)/C=C/C=C(C)/C=C/C2=C(C)CCCC2(C)C)C(C)(C)CCC1 [Beta Carotene]: 9.412

====

test_summary: Transdermal delivery of melatonin: plasma level of melatonin after applying composition to skin of a subject
recorded_conditions: human, plasma, topical, Plasma level of melatonin, 6-(Dimethylamino)hexyl 2-acetoxybenzoate hydrochloride 203.56 mM, 0.375 mL applied to skin, 1 hr after transdermal administration
property_label: concentration at 1 h (ng/mL)

* COc1ccc2[nH]cc(CCNC(C)=O)c2c1 | 1.7

Data origin, for the record: patent US9962369B2
